METHOD DESCRIPTION: Toxicity liver stage against HepG2, at 10uM
Assay type: cell-based
Set-up: test concentration 10 uM, cell line HepG2-A16-CD81EGFP
CONDITION INFO: human, HepG2-A16-CD81EGFP cells; read-out: INHIBITION
Give cytotoxicity at 10 µM for every item shown.
One number for each entry, in %.

The examples below pair each entry with its known result.
| COMPOUND | UNIT LABEL | cytotoxicity at 10 µM |
| --- | --- | --- |
| CCN1CC(C(=O)NCc2noc(Cc3ccccc3)n2)CCC1=O (centres undefined) | % | -4.7 |
| CN1CCN(Cc2nnc(C3CCN(S(C)(=O)=O)CC3)n2C)CC1 | % | 4.67 |
| CN(C)c1cc(C(=O)NCC2(c3ccc(F)cc3)CC2)ccn1 | % | 8.59 |
| CSCC[C@@H](CO)Nc1ccc(-c2nc(-c3ccccc3C)no2)cn1 | % | 3.77 |
| Cc1nc(C2CCCN2Cc2ccon2)no1 (centres undefined) | % | -18 |
| COC(=O)C(c1cc(F)ccc1F)N(C)C(=O)c1cnc(C)cn1 (centres undefined) | % | 0.111 |

List reported cytotoxicity at 10 µM for each of these compounds:
1. CC(C)c1cc(CN2CCC(N)CC2)on1
2. CCn1cc(CN2CCCN(C(=O)c3ccoc3C)CC2)cn1
3. O=C(CCCc1nnc(-c2ccccc2)o1)N1CCC1
4. COC(=O)c1cc(C(=O)N2CCc3ccc(F)cc3C2C)ccn1 (centres undefined)
5. Cc1ncc2c(n1)CN(Cc1nnc(Cc3ccccc3)o1)CC2
6. CCc1nc(C2CCCN(C(=O)NC(C)C)C2)no1 (centres undefined)
7. CN(C)C(=O)CN1CCC(c2nnc(Cn3cccn3)n2C2CC2)CC1
8. CCCc1n[nH]c(C2CN(C(=O)Cc3ccc(C)nc3)CCO2)n1 (centres undefined)

Result:
-10.7
-6.67
-3.41
10.5
1.13
-14
-6.65
6.73

List reported cytotoxicity at 10 µM for each of these compounds:
1. CN(C)Cc1nn(C)c2c1CN(C(=O)c1ccc[nH]1)C2
2. Cc1csc(N2CCCN(c3cc(C)nc(C)c3C#N)CC2)n1
3. C[C@H]1C[C@@H]2CCN(Cc3ccccn3)C[C@H]2O1
4. Cc1ccn2c(=O)cc(CSCC(=O)Nc3nnc(C(C)C)s3)nc2c1
5. Cc1cc2cccc(NC(=O)N3CCC(N(C)C)C3)c2o1 (centres undefined)
6. O=C(CN1CCCNC1=O)Nc1ccccc1SC(F)(F)F
7. Cn1c(CN2CCOCC2)nnc1C1CCN(C(=O)C2CCCC2)CC1
8. CN(Cc1nc(Cc2cccc(C(F)(F)F)c2)no1)C1CCOCC1

Result:
[9.22, 22.6, 5.66, -8.93, 1.97, 12.7, -17.8, 6.39]

List reported cytotoxicity at 10 µM for each of these compounds:
1. COCCN1C(=O)[C@@H]2CC[C@H]1CN(c1nccc(C)n1)C2
2. CCc1cc(NCc2ccccc2CN2CCCC2)n2ncnc2n1

Result:
9.73
5.42

====

METHOD DESCRIPTION: Toxicity liver stage against HepG2, at 10uM
Type: cell-based
Design: test concentration 10 uM, cell line HepG2-A16-CD81EGFP
CONDITION INFO: human, HepG2-A16-CD81EGFP cells; read-out: INHIBITION
READOUT: cytotoxicity at 10 µM (%)
One number for each entry, in %.

The examples below pair each entry with its known result.
| COMPOUND | UNIT LABEL | cytotoxicity at 10 µM |
| --- | --- | --- |
| CN(Cc1ccno1)c1nc(C2CCCC2)nc2c1cnn2C | % | 7.27 |
| CC(Cn1cccn1)NC(=O)N(C)Cc1ccsc1 (centres undefined) | % | -3.81 |
| Cc1cnc2[nH]c(C(F)(F)F)c(CN3CCCC(CO)C3)c2c1 (centres undefined) | % | 8.48 |
| Cc1nn(C)c(=O)c2nn(-c3ccc(F)cc3)c(C)c12 | % | -0.839 |

List reported cytotoxicity at 10 µM for each of these compounds:
1. COC[C@@]12CCO[C@@H]1CCN(C(=O)Cc1ccc(C)cc1)C2
2. CN(Cc1nccs1)C1CCN(c2ncccn2)CC1
3. O=C(CN1CCN(C(=O)c2ccccc2)CC1)Nc1ncc(Br)cc1Br
4. O=C(COCC(F)(F)F)Nc1nncs1
5. O=C(c1ccc2nccn2c1)N(CCO)Cc1ccccc1F
6. N#Cc1cccc(S(=O)(=O)N2CCCCC2CCN2CCCC2)c1 (centres undefined)
7. O=C(CNC(=O)Nc1c(F)cccc1Oc1ccccc1)NC1CC1
8. CNC(=O)C1CC(=O)N(c2cccc(F)c2)C1 (centres undefined)

Result:
1.47
10.1
8.63
5.79
5.27
-123
6.45
4.61

====

METHOD DESCRIPTION: Toxicity liver stage against HepG2, at 10uM
Format: cell-based
Set-up: test concentration 10 uM, cell line HepG2-A16-CD81EGFP
CONDITION INFO: human, HepG2-A16-CD81EGFP cells; read-out: INHIBITION
READOUT: cytotoxicity at 10 µM (%)
Numbers only, in %.

| MOLECULE | READOUT | RECORDED MEASUREMENT |
| --- | --- | --- |
| CN1CCN(Cc2cn3c(n2)CN(C2CCOCC2)CC3)CC1 | cytotoxicity at 10 µM | 3.91 |
| Cc1cc(CN2CC[C@H]3C[C@@H](C)O[C@@H]3C2)no1 | cytotoxicity at 10 µM | -75.5 |
| Cc1sc2c(C3CCCN(C(C)C)C3)nc(C)n2c1C (stereo not drawn) | cytotoxicity at 10 µM | -13.8 |
| Cc1noc([C@]23COC[C@H]2CN(C(=O)N2CCCC2)C3)n1 | cytotoxicity at 10 µM | -103 |
| CNS(=O)(=O)CCn1cc(-c2ccc(OC)c(OC)c2)nn1 | cytotoxicity at 10 µM | 1.9 |

List reported cytotoxicity at 10 µM for each of these molecules:
1. CCn1ncc2c1C(COCC1CC1)N(Cc1nccs1)CC2 (stereo not drawn)
2. CCN(CC)S(=O)(=O)N1C[C@@H](O)[C@H](Oc2cccc(F)c2)C1
3. CC(C)c1nc(C2CCCN2CC(=O)N2CCc3ccccc32)no1 (stereo not drawn)
4. COc1ccc(-n2ccc(C(=O)N(CCN(C)C)C(C)C)n2)cc1

Result:
1: 10.6; 2: 9.73; 3: -5.84; 4: -3.29

List reported cytotoxicity at 10 µM for each of these molecules:
1. Cc1c[nH]nc1C1CCCN1Cc1ncc[nH]1 (stereo not drawn)
2. CCOc1ccc(NC(=O)NCC(C)(O)c2cccs2)cc1 (stereo not drawn)
3. Cn1ncc(C2CC(=O)NCc3nc4sccn4c32)c1C1CC1 (stereo not drawn)
4. O=C(CSc1nc2c(cnn2CCO)c(=O)[nH]1)N1CCCCCC1

Result:
1. 4.99
2. -0.579
3. -5.01
4. -15.4

List reported cytotoxicity at 10 µM for each of these molecules:
1. Cc1ccc(C(=O)NCCN2CCOCC2)c(=O)[nH]1
2. CC(C)c1nccn1CCn1cnc2ccsc2c1=O

Result:
[-8.44, 4.4]

List reported cytotoxicity at 10 µM for each of these molecules:
1. O=C(c1ccccc1)N1CCN(C2CCc3ccc(F)cc32)CC1 (stereo not drawn)
2. CC(C)Nc1cc(N2CCCC3(CN(C)C(=O)O3)C2)ncn1 (stereo not drawn)
3. Cc1nc2c(c(NC(C)C)n1)CCN(Cc1cccnc1)CC2

Result:
1: 11.1; 2: -53; 3: 6.4

====

METHOD DESCRIPTION: Toxicity liver stage against HepG2, at 10uM
Format: cell-based
Set-up: test concentration 10 uM, cell line HepG2-A16-CD81EGFP
CONDITION INFO: human, HepG2-A16-CD81EGFP cells; read-out: INHIBITION
READOUT: cytotoxicity at 10 µM (%)
Give bare numbers, in %.

| SMILES | RECORDED MEASUREMENT |
| --- | --- |
| Fc1cccc(Cl)c1CN1CCC(c2n[nH]c3ncccc23)CC1 | -13.7 |
| COc1ccccc1CN1C(=O)O[C@@H]2CN(c3nc(C)cnc3C)C[C@@H]21 | 1.06 |
| Cc1ccc(C(=O)N2CCC3(CC2)CN(c2ccccn2)CCO3)cc1 | -75.4 |
| NC(=O)c1cnc2n1CCN(C(=O)c1cccc(Cn3cccn3)c1)C2 | 4.35 |

List reported cytotoxicity at 10 µM for each of these compounds:
1. CCn1cc(NC(=O)NCc2ccc(CO)c(F)c2)cn1
2. COCCNc1nnc(S(=O)(=O)CCC(C)(C)C#N)s1

Result:
[8.69, 10.7]

====

METHOD DESCRIPTION: Toxicity liver stage against HepG2, at 10uM
Type: cell-based
Design: test concentration 10 uM, cell line HepG2-A16-CD81EGFP
CONDITION INFO: human, HepG2-A16-CD81EGFP cells; read-out: INHIBITION
Give cytotoxicity at 10 µM for every item shown.
Give bare numbers, in %.

The examples below pair each entry with its known result.
| COMPOUND | cytotoxicity at 10 µM [%] |
| --- | --- |
| O=C(COc1ccccc1Br)N1CCOc2ccncc21 | 5.13 |
| Cc1cc(CNC(=O)NCC(O)c2cccc(F)c2)no1 (stereo not given) | 3.1 |
| CSCc1cccc(S(=O)(=O)N2CCSCC2)c1 | 14.3 |

List reported cytotoxicity at 10 µM for each of these compounds:
1. CC(C)n1ccnc1C1CCCN(c2cc(C(=O)NC3CC3)ccn2)C1 (stereo not given)
2. COCc1ccccc1CNC(=O)CN1CCC2(CCOC2)C1 (stereo not given)
3. Fc1ccc(CN2CCOC(Cn3cncn3)C2)c2ncccc12 (stereo not given)
4. Cc1cc(C)nc(N2CCCC(c3nccn3CCCN(C)C)C2)c1 (stereo not given)
5. CC(=O)N1CCOC2(CCN(C(=O)c3cnoc3C)CC2)C1
6. CCCc1nc(N2CCSCC2)c2c(n1)c(C)nn2CC

Result:
-0.352
-61
0.219
-7.97
-0.0788
8.05

List reported cytotoxicity at 10 µM for each of these compounds:
1. Cc1cc(CN2CCC(CNC(=O)CN3CCCCCC3)C2)[nH]n1 (stereo not given)
2. CC(C)N1[C@H](CN2CCCC2)C[C@@H]2CN(Cc3ccoc3)CC[C@@H]21
3. COc1ncc(CN(CCN(C)C)Cc2ccc(C)s2)cn1

Result:
[-131, -157, -50.3]

List reported cytotoxicity at 10 µM for each of these compounds:
1. O=C(Cn1cc(C(=O)O)ccc1=O)NCc1ccc(F)c(Cl)c1
2. Cc1ccc(C(O)CNC(=O)c2cccnc2O)cc1 (stereo not given)
3. COCCn1ccc2c(cnc3nc(SC)nn32)c1=O
4. CC(C(N)=O)N1CCc2onc(-c3cccc(F)c3)c2C1 (stereo not given)

Result:
[-5.88, 11, -17.4, 3.38]

List reported cytotoxicity at 10 µM for each of these compounds:
1. CNc1nc(CNC(=O)Nc2cccc(-c3nnco3)c2)cs1
2. CCN1CCC(CC(=O)N2CCn3cccc3C2c2cccnc2)CC1 (stereo not given)
3. CC(C)CN1CC(C(=O)NCCNc2ncccn2)CC1=O (stereo not given)
4. O=C(CN1C(=O)CCC1=O)NCCc1nc(C2CC2)cc(C(F)(F)F)n1

Result:
1: -5.26; 2: -8.87; 3: -23; 4: -2.02
